Values from patent US4792554A

# Tested on: bradykinin
# Test Summary: Antagonistic action towards bradykinin: inhibition of bradykinin-induced bronchospasm in anesthetized guinea pigs (Konzett-Rössler)
# Format: in vivo, guinea pig
# Experimental Conditions: Cavia porcellus, iv, anesthetized guinea pigs, dose reducing induced spasm to one half; read-out: Inhibitory action towards bradykinin (ED50)
# Protocol: 1. Antagonistic action towards the allergy mediators (on anesthetized guinea pigs) The test substances were administered intravenously in aqueous solution injected in a volume of 1 ml/kg.
Quantity: ED50

Prompt line: Provide the documented ED50 with bradykinin as the system for Cc1cc(N2CCSCC2)c([N+](=O)[O-])c(C)n1.Cl [reference compound]
Response line: 3.16 mg/kg

Prompt line: Provide the documented ED50 with bradykinin as the system for Cc1cc(NCCN2CCN(CC=Cc3ccccc3)CC2)c([N+](=O)[O-])c(C)n1
Response line: 3 to 10 mg/kg

Prompt line: Provide the documented ED50 with bradykinin as the system for O=[N+]([O-])c1cnccc1NCCN1CCN(C(c2ccccc2)c2ccccc2)CC1
Response line: 0.03 mg/kg

Prompt line: Provide the documented ED50 with bradykinin as the system for Cc1cc(NCCN2CCN(C(c3ccccc3)c3ccccc3)CC2)c(C#N)c(C)[n+]1[O-]
Response line: 1 to 3 mg/kg

Prompt line: Provide the documented ED50 with bradykinin as the system for Cc1cc(NCCN2CCN(C(c3ccccc3)c3ccccc3)CC2)c(C#N)c(C)n1
Response line: 3 to 10 mg/kg

Prompt line: Provide the documented ED50 with bradykinin as the system for Cc1cc(NCCN2CCN(C(c3ccccc3)c3ccccc3)CC2)c([N+](=O)[O-])c(C)n1.Cl.Cl.Cl
Response line: 0.15 mg/kg

Prompt line: Provide the documented ED50 with bradykinin as the system for Cc1cc(NCCN2CCN(C(c3ccc(F)cc3)c3ccc(F)cc3)CC2)c([N+](=O)[O-])c(C)n1
Response line: 3 to 6 mg/kg

Prompt line: Provide the documented ED50 with bradykinin as the system for Cc1cc(NCCN2CCN(C(c3ccccc3)c3ccc(Cl)cc3)CC2)c([N+](=O)[O-])c(C)n1 (centres unmarked)
Response line: 3 to 10 mg/kg

---

# Tested on: bradykinin
# Test Summary: Antagonistic action towards bradykinin: inhibition of bradykinin-induced bronchospasm in anesthetized guinea pigs (Konzett-Rössler)
# Type: in vivo, guinea pig
# Experimental Conditions: Cavia porcellus, iv, anesthetized guinea pigs, dose reducing induced spasm to one half; read-out: Inhibitory action towards bradykinin (ED50)
Where a name gives a salt, the structure may show the parent alone.
Quantity: ED50

Prompt line: Recorded ED50 for Cc1cc(N(C)CCN2CCN(C(c3ccccc3)c3ccccc3)CC2)c([N+](=O)[O-])c(C)n1 , please?
Response line: 10 mg/kg

Prompt line: Recorded ED50 for Cc1cc(NCCN2CCC(C(O)(c3ccccc3)c3ccccc3)CC2)c([N+](=O)[O-])c(C)n1 [Example 17, dihydrochloride] , please?
Response line: 3 to 10 mg/kg

Prompt line: Recorded ED50 for Cc1cc(NCCN2CCN(C(c3ccncc3)c3ccc(Cl)cc3)CC2)c([N+](=O)[O-])c(C)n1 (stereo not shown) , please?
Response line: 1 mg/kg

Prompt line: Recorded ED50 for Cc1cc(NCCCN2CCN(C(c3ccccc3)c3ccccc3)CC2)c([N+](=O)[O-])c(C)n1 , please?
Response line: 3 to 10 mg/kg

---

# System: mast cells
# Test Summary: Passive cutaneous anaphylaxis (PCA) in the rat, inhibition of mediator release (protective effect on mast cells)
# Assay type: in vivo
# Experimental Conditions: Mast cell, oral dose 50 mg/kg
Counter-ions that a name gives are not always drawn.
Quantity: inhibition in vivo at 50 mg/kg (%)
Lab book: enter the figure in %, no units written.

Prompt line: Recorded inhibition in vivo at 50 mg/kg for Cc1cc(NCCN2CCN(C(c3ccccc3)c3ccccc3)CC2)c([N+](=O)[O-])c(C)n1.Cl.Cl.Cl [Example 3, trihydrochloride] , please?
Response line: 85

Prompt line: Recorded inhibition in vivo at 50 mg/kg for Cc1cc(NCCN2CCC(=C(c3ccccc3)c3ccccc3)CC2)c([N+](=O)[O-])c(C)n1.Cl.Cl.O.O [Example 6, dihydrochloride dihydrate] , please?
Response line: 91

Prompt line: Recorded inhibition in vivo at 50 mg/kg for Cc1cc(NCCN2CCN(C(c3ccccc3)c3ccccc3)CC2)c(N)c(C)n1.Cl.Cl.Cl.O.O [Example 4, trihydrochloride dihydrate] , please?
Response line: 73

Prompt line: Recorded inhibition in vivo at 50 mg/kg for Cc1cc(NCCN2CCN(C(c3ccccc3)c3ccccc3)CC2)c(C#N)c(C)n1 , please?
Response line: 64

Prompt line: Recorded inhibition in vivo at 50 mg/kg for Cc1cc(NCCN2CCN(C(c3ccc(F)cc3)c3ccc(F)cc3)CC2)c([N+](=O)[O-])c(C)n1 , please?
Response line: 59

Prompt line: Recorded inhibition in vivo at 50 mg/kg for Cc1cc(NCCN2CCN(C(c3ccccc3)c3ccccc3)CC2)c(C#N)c(C)[n+]1[O-] , please?
Response line: 91

Prompt line: Recorded inhibition in vivo at 50 mg/kg for CCCc1cc(NCCN2CCN(C(c3ccccc3)c3ccccc3)CC2)c([N+](=O)[O-])c(CCC)n1 , please?
Response line: 61

Prompt line: Recorded inhibition in vivo at 50 mg/kg for Cc1cc(NCCN2CCN(C(c3ccccc3)c3ccc(Cl)cc3)CC2)c([N+](=O)[O-])c(C)n1 (centres unmarked) , please?
Response line: 55

Prompt line: Recorded inhibition in vivo at 50 mg/kg for Cc1cc(NCCN2CCN(C(c3ccccc3)c3ccccc3)CC2)c(C(=O)O)c(C)n1.Cl.Cl.Cl.O.O [Example 5, trihydrochloride dihydrate] , please?
Response line: 91

Prompt line: Recorded inhibition in vivo at 50 mg/kg for Cc1cc(NCCN2CCN(C(c3ccccc3)c3ccccc3)CC2)c([N+](=O)[O-])c(C)[n+]1[O-].Cl.Cl.Cl.O.O [Example 1, trihydrochloride dihydrate] , please?
Response line: 91

Prompt line: Recorded inhibition in vivo at 50 mg/kg for Cc1cc(NCCCN2CCN(C(c3ccccc3)c3ccccc3)CC2)c([N+](=O)[O-])c(C)n1 , please?
Response line: 55

Prompt line: Recorded inhibition in vivo at 50 mg/kg for Cc1cc(NCCN2CCN(CC=Cc3ccccc3)CC2)c([N+](=O)[O-])c(C)n1 , please?
Response line: 60

Prompt line: Recorded inhibition in vivo at 50 mg/kg for Cc1cc(NCCN2CCN(C(c3ccncc3)c3ccc(Cl)cc3)CC2)c([N+](=O)[O-])c(C)n1 (centres unmarked) , please?
Response line: 75

Prompt line: Recorded inhibition in vivo at 50 mg/kg for Cc1cc(NCCN2CCC(C(O)(c3ccccc3)c3ccccc3)CC2)c([N+](=O)[O-])c(C)n1 [Example 17, dihydrochloride] , please?
Response line: 91

Prompt line: Recorded inhibition in vivo at 50 mg/kg for Cc1cc(NCCN2CCN(Cc3ccccc3)CC2)c([N+](=O)[O-])c(C)n1 , please?
Response line: 67

Prompt line: Recorded inhibition in vivo at 50 mg/kg for Cc1cc(N2CCSCC2)c([N+](=O)[O-])c(C)n1.Cl [hydrochloride, reference compound] , please?
Response line: 13

Prompt line: Recorded inhibition in vivo at 50 mg/kg for Cc1cc(N(C)CCN2CCN(C(c3ccccc3)c3ccccc3)CC2)c([N+](=O)[O-])c(C)n1 , please?
Response line: 68

---

# Test Summary: Acute toxicity, mortality within 7 days after single i.p. administration to NMRI mice
# Experimental Conditions: in vivo, ip, mouse i.p.
Where a name gives a salt, the structure may show the parent alone.
What LD50 at 168 h was measured for each of the following?

Prompt line: Recorded LD50 at 168 h for Cc1cc(NCCN2CCN(C(c3ccccc3)c3ccccc3)CC2)c(C(=O)O)c(C)n1.Cl.Cl.Cl.O.O [Example 5] , please?
Response line: 300 to 600 mg/kg

Prompt line: Recorded LD50 at 168 h for Cc1cc(NCCCN2CCN(C(c3ccccc3)c3ccccc3)CC2)c([N+](=O)[O-])c(C)n1 [Example 7] , please?
Response line: 150 to 300 mg/kg

Prompt line: Recorded LD50 at 168 h for Cc1cc(NCCN2CCN(C(c3ccccc3)c3ccccc3)CC2)c(C#N)c(C)n1 [Example 9] , please?
Response line: 300 to 600 mg/kg

Prompt line: Recorded LD50 at 168 h for Cc1cc(NCCN2CCN(C(c3ccc(F)cc3)c3ccc(F)cc3)CC2)c([N+](=O)[O-])c(C)n1 [Example 15] , please?
Response line: 300 to 600 mg/kg

Prompt line: Recorded LD50 at 168 h for Cc1cc(NCCN2CCN(C(c3ccccc3)c3ccc(Cl)cc3)CC2)c([N+](=O)[O-])c(C)n1 (stereo not drawn) [Example 14] , please?
Response line: 150 to 300 mg/kg

Prompt line: Recorded LD50 at 168 h for Cc1cc(NCCN2CCN(C(c3ccccc3)c3ccccc3)CC2)c([N+](=O)[O-])c(C)n1.Cl.Cl.Cl [Example 3] , please?
Response line: 300 to 600 mg/kg

Prompt line: Recorded LD50 at 168 h for Cc1cc(N(C)CCN2CCN(C(c3ccccc3)c3ccccc3)CC2)c([N+](=O)[O-])c(C)n1 [Example 13] , please?
Response line: 150 to 300 mg/kg

Prompt line: Recorded LD50 at 168 h for Cc1cc(NCCN2CCN(C(c3ccncc3)c3ccc(Cl)cc3)CC2)c([N+](=O)[O-])c(C)n1 (stereo not drawn) [Example 16] , please?
Response line: 300 to 600 mg/kg

Prompt line: Recorded LD50 at 168 h for Cc1cc(NCCN2CCN(CC=Cc3ccccc3)CC2)c([N+](=O)[O-])c(C)n1 [Example 8] , please?
Response line: 75 to 150 mg/kg

Prompt line: Recorded LD50 at 168 h for O=[N+]([O-])c1cnccc1NCCN1CCN(C(c2ccccc2)c2ccccc2)CC1 [Example 21] , please?
Response line: 150 to 300 mg/kg

Prompt line: Recorded LD50 at 168 h for Cc1cc(NCCN2CCN(C(c3ccccc3)c3ccccc3)CC2)c([N+](=O)[O-])c(C)[n+]1[O-].Cl.Cl.Cl.O.O [Example 1] , please?
Response line: > 150 mg/kg

Prompt line: Recorded LD50 at 168 h for Cc1cc(NCCN2CCC(=C(c3ccccc3)c3ccccc3)CC2)c([N+](=O)[O-])c(C)n1.Cl.Cl.O.O [Example 6] , please?
Response line: 600 to 1200 mg/kg

Prompt line: Recorded LD50 at 168 h for Cc1cc(NCCN2CCC(C(O)(c3ccccc3)c3ccccc3)CC2)c([N+](=O)[O-])c(C)n1 [Example 17, dihydrochloride] , please?
Response line: 75 to 150 mg/kg

Prompt line: Recorded LD50 at 168 h for Cc1cc(N2CCSCC2)c([N+](=O)[O-])c(C)n1.Cl [reference compound] , please?
Response line: 150 to 300 mg/kg

Prompt line: Recorded LD50 at 168 h for Cc1cc(NCCN2CCN(C(c3ccccc3)c3ccccc3)CC2)c(C#N)c(C)[n+]1[O-] [Example 10] , please?
Response line: 75 to 150 mg/kg
